Data provenance is patent US20170189504A1.

- System: CD8+ T cells
- protocol text: In vitro immunogenicity: T-cell priming with aAPCs loaded with peptide/MHC complexes and anti-CD28 antibody, pMHC multimer readout (Tables 19A, 19B)
- Type: cell-based, human
- assay conditions: in vitro immunogenicity of HLA class I peptides, pMHC multimer readout after priming of CD8+ T cells
measured parameter: Wells positive [%]

Some entries whose results are on file:
150 (VLYDRPLKI; listed as Homo sapiens) [compound 150]; ++ (20%-49% = ++)
199 (RYAEEVGIF; listed as Homo sapiens) [compound 199]; ++ (20%-49% = ++)
35 (FLLPFSTVYL; listed as Homo sapiens) [compound 35]; + (<20% = +)
168 (KYQDILETI; listed as Homo sapiens) [compound 168]; ++ (20%-49% = ++)

Asked: What does the record list as Wells positive [%] for 4 (KLMPGTYTL; listed as Homo sapiens) [compound 4] ?
Given back: + (<20% = +)

Asked: What does the record list as Wells positive [%] for 7 (ILDHEVPSL; listed as Homo sapiens) [compound 7] ?
Given back: ++ (20%-49% = ++)

Asked: What does the record list as Wells positive [%] for 251 (ALSVLRLAL; listed as Homo sapiens) [compound 251] ?
Given back: ++ (20%-49% = ++)

Asked: What does the record list as Wells positive [%] for 141 (FLDKVLVAA; listed as Homo sapiens) [compound 141] ?
Given back: + (<20% = +)

Asked: What does the record list as Wells positive [%] for 173 (IYSWILDHF; listed as Homo sapiens) [compound 173] ?
Given back: ++ (20%-49% = ++)
